# Recorded Conditions: buffer; pH 7.4; 200.0 µM
Outcome Measure: log10 solubility kinetic (log10 of the value in µg/mL)
Short version: log10 scale, solubility kinetic, µg/mL.

# example entries with known answers
Task: Data request, read-out log10 solubility kinetic, for Clc1ccc(-c2nc(NCCCN3CCOCC3)c3ccccc3n2)cc1
Result: 0.15

Task: Same read-out for O=c1cc(-c2ccc([N+](=O)[O-])cc2)c2cc3c(cc2[nH]1)OCCO3 ?
Result: -0.05

Task: Same read-out for COCCNc1nc(N)c([N+](=O)[O-])c(NCc2ccccc2)n1 ?
Result: 0.69

Next:
Task: Data request, read-out log10 solubility kinetic, for COc1ccc(CNC(=O)/C=C/C(=O)O)cc1
Result: 1.54

Task: Same read-out for O=C(O)c1csc(-c2ccccc2)n1 ?
Result: 1.45

Task: Same read-out for Cl.Clc1ccccc1CNCc1ccncc1 ?
Result: 1.59

----------
Below, each entry is listed with its recorded solubility kinetic.
# Recorded Conditions: buffer; pH 7.4; 200.0 µM

# example entries with known answers
Task: Data request, read-out solubility kinetic, for O=C(O)C1Cc2[nH]cnc2C(c2cccc([N+](=O)[O-])c2)N1 (centres undefined)
Result: 43.1 µg/mL

Task: Same read-out for O=C(COC(=O)c1c(F)cccc1F)Nc1ccc(N2CCCCC2)cc1 ?
Result: 5.2 µg/mL

Task: Same read-out for O=C(O/N=C1/CCCc2occc21)c1ccc(F)cc1 ?
Result: 0.9 µg/mL

Task: Same read-out for CCN(CC)C(=S)SC1=CCS(=O)(=O)C1 ?
Result: 26.8 µg/mL

Task: Same read-out for N#C/C(=C\c1cc(Br)ccc1F)C(=O)NC1CC1 ?
Result: 13.1 µg/mL

Task: Same read-out for Cl.O=C(NCCN1CCCC1)c1ccc(Cl)cc1Cl ?
Result: > 48.5 µg/mL

Next:
Task: Data request, read-out solubility kinetic, for COc1ccc(CCNCc2sccc2C)cc1OC.Cl
Result: 36 µg/mL

Task: Same read-out for Cc1cc(C)c(S(=O)(=O)NC2CC(C)(C)NC(C)(C)C2)cc1C ?
Result: 33.5 µg/mL

Task: Same read-out for CSc1ncccc1C(=O)OCC(=O)Nc1ccc2c(c1)OCO2 ?
Result: 2.7 µg/mL

Task: Same read-out for N/C(Cc1ccc([N+](=O)[O-])cc1)=N\OC(=O)c1ccccc1F ?
Result: 2.6 µg/mL

Task: Same read-out for Cl.c1cncc(CNc2ncnc3sc4c(c23)CCC4)c1 ?
Result: 7.5 µg/mL

Task: Same read-out for O=C(N/C(=C\c1ccccc1)C(=O)N1CCCCC1)c1ccc(Br)o1 ?
Result: > 60.5 µg/mL

Task: Same read-out for CCC1CCCCN1C(=O)CCS(=O)(=O)c1ccccc1 (centres undefined) ?
Result: > 46.4 µg/mL

Task: Same read-out for O=S(=O)(c1ccc(F)cc1)n1cnc2ccccc21 ?
Result: 28.4 µg/mL

Task: Same read-out for ClCC1NCC(c2ccccc2Cl)c2c1[nH]c1ccccc21 (centres undefined) ?
Result: 19.3 µg/mL

----------
# Recorded Conditions: buffer; pH 7.4; 200.0 µM
Below, each entry is listed with its recorded log10 solubility kinetic.
Short version: log10 scale, solubility kinetic, µg/mL.

Task: Data request, read-out log10 solubility kinetic, for Cc1ccc(S(=O)(=O)/N=C2\C=C(Nc3ccc(O)cc3)C(=O)c3ccccc32)cc1
Result: -0.05

Task: Same read-out for O=C(Nc1nccs1)c1ccccc1Br ?
Result: 0.79

Task: Same read-out for Cn1c(O)c(/C=C2\C=Nc3ccc(Br)cc32)c(=O)n(C)c1=O ?
Result: -0.05

Task: Same read-out for Cc1ccc(CNC(=O)CN2C(=O)NC3(CCCC3)C2=O)cc1 ?
Result: 1.64

Task: Same read-out for Cc1cc2ccccc2cc1CN1CCCCC1 ?
Result: 0.98

Task: Same read-out for N/C(=N\OC(=O)c1ccccc1F)c1ccc([N+](=O)[O-])cc1 ?
Result: 0.36

Next:
Task: Data request, read-out log10 solubility kinetic, for O=C1NC(=O)N(Cc2ccc(F)cc2)C(=O)/C1=C\C=C\c1ccco1
Result: 1.00

Task: Same read-out for N#Cc1c(N2CCN(c3ccc(F)cc3)CC2)nc(N)c2c(N)nc3c(c12)CC(=O)N3C1CC1 ?
Result: -0.10

----------
# Recorded Conditions: buffer; pH 7.4; 200.0 µM
Below, each entry is listed with its recorded solubility kinetic.
Please give a number only; it is taken to be in µg/mL.

Task: Data request, read-out solubility kinetic, for Cc1ccc(C)c(N2CC(C(=O)Nc3cc(C)on3)CC2=O)c1 (stereo unspecified)
Result: 40.3

Task: Same read-out for COc1ccccc1N(CC(=O)Nc1ccc(C)cc1Cl)S(=O)(=O)c1cccs1 ?
Result: 6.9

Next:
Task: Data request, read-out solubility kinetic, for C=CCNC(=O)c1cc(-c2ccncc2)nc2c(C)cc(C)cc12
Result: 2

Task: Same read-out for CC1(C)Cc2cccc(OCC(=O)Nc3ccccc3C(F)(F)F)c2O1 ?
Result: 7.5

----------
# Recorded Conditions: buffer; pH 7.4; 200.0 µM
Below, each entry is listed with its recorded solubility kinetic.
Please give a number only; it is taken to be in µg/mL.

Task: Data request, read-out solubility kinetic, for O=C(Cn1c(=S)[nH]c2ccccc2c1=O)N1CCc2ccccc2C1
Result: 3.9

Task: Same read-out for CC(C)c1ccccc1OCC(=O)N1CCCCCCC1 ?
Result: 18.8

Task: Same read-out for CC1(C)C(=O)Nc2ccccc2N1C(=O)COc1ccccc1C#N ?
Result: 21.5

Task: Same read-out for Cc1cccc(NC(=S)NCCc2ccc3c(c2)OCCO3)c1C ?
Result: 27.7

Task: Same read-out for COc1ccccc1NCc1cc(=O)oc2c(C)c(O)ccc12 ?
Result: 4.4

Now, please, on to the next compound.
Task: Data request, read-out solubility kinetic, for COc1ccnc2c1c(=O)n(Cc1ccccc1Cl)c(=O)n2C
Result: 36

----------
# Recorded Conditions: buffer; pH 7.4; 200.0 µM
Outcome Measure: log10 of solubility kinetic (log10 of the value in µg/mL)
Short version: log10 scale, solubility kinetic, µg/mL.

# example entries with known answers
Task: Data request, read-out log10 of solubility kinetic, for Cc1ccc(NC(=O)NCc2cccnc2)cc1C
Result: 1.58

Task: Same read-out for Cc1cccc(OCCCCN2CCNCC2)c1 ?
Result: 1.33

Task: Same read-out for O=C1CC(NC(=O)C(F)(F)F)c2cc3c(cc21)OCO3 (configuration not stated) ?
Result: 1.63

Task: Same read-out for Cc1c(C(=O)NCc2ccccc2F)oc2ccccc12 ?
Result: 0.18

Task: Same read-out for CC(=O)c1ccc(NC(=O)c2onc(C)c2Cl)cc1 ?
Result: 0.83

Next:
Task: Data request, read-out log10 of solubility kinetic, for Cc1cccc2nc(C(=O)Nc3cccc(C(=O)NC4CC4)c3)cn12
Result: 0.74

----------
# Recorded Conditions: buffer; pH 7.4; 200.0 µM
Class (required): determined from solubility kinetic; valid ranges are lower band = under 2 µg/mL, central band = from 2 µg/mL up to 20 µg/mL, upper band = 20 µg/mL and over

# example entries with known answers
Task: Just checking, what class would you give Cc1nnc(SCC(=O)N2CCCC2)n(N)c1=O here?
Result: upper band

Task: Same read-out for CCOC(=O)Cn1nc(C)c(NC(=O)COc2ccc(OC)cc2)c1C ?
Result: upper band

Task: Same read-out for CC(C)(C)CC(=O)NC(=S)NCc1ccccc1 ?
Result: lower band

Task: Same read-out for O=C(Nc1ccc(-c2cn3c(n2)SCC3)cc1)c1ccco1 ?
Result: upper band

Task: Same read-out for Cn1c(=O)n(Cc2ccccc2Cl)c(=O)c2c1[nH]c(=S)n2C ?
Result: upper band

Next:
Task: Just checking, what class would you give CCc1ccc(CCC(=O)Nc2ccc(C(=O)O)cc2)o1 here?
Result: upper band

Task: Same read-out for NC(=S)NC1CC2C=CC1C2 (stereo not drawn) ?
Result: upper band

Task: Same read-out for COC(=O)c1ccc(C(=O)N(Cc2ccccc2)c2ccccc2)cc1 ?
Result: central band

Task: Same read-out for CNC(=O)c1c(O)c2cccc3c2n(c1=O)CCC3 ?
Result: central band

Task: Same read-out for NC(=O)c1ccccc1NC(=O)N1CCOCC1 ?
Result: upper band

Task: Same read-out for CCNC(=S)N1CCC(C(=O)c2ccc(Cl)cc2)CC1 ?
Result: upper band

Task: Same read-out for Brc1cc(Br)c2nc3c(cc2c1)CCC3 ?
Result: lower band

Task: Same read-out for O=C(NCCc1ccncc1)Nc1ccc(Cl)c(Cl)c1 ?
Result: upper band

Task: Same read-out for Cc1cc(C)c2cc(C(=O)Nc3ccc(C)c(F)c3)[nH]c2c1 ?
Result: lower band

Task: Same read-out for CCOC(=O)/C(C#N)=C1\CC2CCC1(C)C2(C)C (stereo not drawn) ?
Result: lower band

Task: Same read-out for CCCCOc1ccc(OCCCN2CCOCC2)cc1.Cl ?
Result: upper band

Task: Same read-out for COc1cc2c(cc1OC)CN(c1ccc(C(N)=O)cc1[N+](=O)[O-])CC2 ?
Result: central band

Task: Same read-out for Cc1nc2ccc([N+](=O)[O-])cc2c(=O)n1Cc1ccc(Cl)cc1 ?
Result: lower band

Task: Same read-out for O=C(Nc1ccccc1)C1CCOC1=O (stereo not drawn) ?
Result: upper band

Task: Same read-out for C/C(=N\NC(=O)c1cc(C)nc2ccccc12)c1ccccn1 ?
Result: upper band

Task: Same read-out for CCS(=O)(=O)CCn1c([N+](=O)[O-])cnc1C ?
Result: upper band

Task: Same read-out for CCc1ccc(NC(=O)NCc2cccnc2)cc1 ?
Result: upper band

Task: Same read-out for O=C(OCC(=O)N1CCOCC1)c1cc(-c2ccccc2)nc2ccccc12 ?
Result: upper band

Task: Same read-out for O=Cc1c(NCc2ccccc2Cl)c2ccccc2[nH]c1=O ?
Result: central band

Task: Same read-out for CC(=O)NS(=O)(=O)c1ccc(NC(=S)NC(=O)C2CCC2)cc1 ?
Result: upper band

Task: Same read-out for CCN(CC)S(=O)(=O)c1cccc(C(=O)Nc2cc(C)on2)c1 ?
Result: central band
